The origin of these recorded values is ChEMBL document CHEMBL1147707.

Target: Glucagon receptor (Homo sapiens)
Sequence (P47871 whole entry): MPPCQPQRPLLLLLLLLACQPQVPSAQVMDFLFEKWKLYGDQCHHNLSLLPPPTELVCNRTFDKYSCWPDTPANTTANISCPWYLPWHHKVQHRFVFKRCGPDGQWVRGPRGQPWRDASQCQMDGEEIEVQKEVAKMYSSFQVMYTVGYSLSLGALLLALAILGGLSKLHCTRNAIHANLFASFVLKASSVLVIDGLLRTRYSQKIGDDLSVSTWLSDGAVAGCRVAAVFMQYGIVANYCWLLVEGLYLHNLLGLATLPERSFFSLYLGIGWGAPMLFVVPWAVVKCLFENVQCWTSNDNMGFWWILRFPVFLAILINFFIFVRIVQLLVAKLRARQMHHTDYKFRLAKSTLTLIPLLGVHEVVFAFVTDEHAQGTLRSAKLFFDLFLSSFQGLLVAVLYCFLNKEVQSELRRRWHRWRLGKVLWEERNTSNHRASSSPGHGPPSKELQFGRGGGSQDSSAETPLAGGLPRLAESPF
// reported pIC50 for each item listed
Friendly reminder that pIC50 comes from taking -log10 of the concentration in mol/L.

Consider O=C(c1ccc(OCCCN2CCCC2)cc1)c1cccc2ccccc12 . Its measured pIC50 is 4.77

Continuing:
Consider O=C(c1ccc(OCCN2CCCC2)cc1)c1cccc2ccccc12 . Its measured pIC50 is 4.26

Consider COc1ccc(NCCCOc2ccc(C(=O)c3cccc4ccccc34)cc2)cc1 . Its measured pIC50 is 4.46

* * *

System: Rattus norvegicus
Experiment: Antihyperglycemic activity in sucrose-loaded Sprague-Dawley rat at 100 mg/kg
Type: functional
Threshold 20%. Activity below it: Met. Activity at it or above: Not met.

Look over these answered cases.
In: Hello, I'm reviewing records and need to know if Activity of O=C(c1ccc(OCCCNCc2ccccc2)cc1)c1cccc2ccccc12 is below 20%. Could you check?
Out: Met

In: Hello, I'm reviewing records and need to know if Activity of O=C(c1ccc(OCCNCc2ccccc2)cc1)c1cccc2ccccc12 is below 20%. Could you check?
Out: Met

In: Hello, I'm reviewing records and need to know if Activity of O=C(c1ccc(OCCNC2CCCCC2)cc1)c1cccc2ccccc12 is below 20%. Could you check?
Out: Met

Continuing:
In: Hello, I'm reviewing records and need to know if Activity of O=C(c1ccc(OCCCCl)cc1)c1cccc2ccccc12 is below 20%. Could you check?
Out: Not met

In: Hello, I'm reviewing records and need to know if Activity of O=C(c1ccc(OCCN2CCCCC2)cc1)c1cccc2ccccc12 is below 20%. Could you check?
Out: Met

In: Hello, I'm reviewing records and need to know if Activity of O=C(c1ccc(OCCCl)cc1)c1cccc2ccccc12 is below 20%. Could you check?
Out: Not met

* * *

// reported Activity for each item listed
Test system: Rattus norvegicus
Assay: Antihyperglycemic activity in sucrose-loaded Sprague-Dawley rat at 100 mg/kg
Format: functional
Just the number please, in %, no unit attached.

Record O=C(c1ccc(OCCCNC2CCCCC2)cc1)c1cccc2ccccc12 has Rattus norvegicus Activity equal to 11.16

Record O=C(c1ccc(OCCCN2CCCCC2)cc1)c1cccc2ccccc12 has Rattus norvegicus Activity equal to 7.16

* * *

System: Rattus norvegicus
Assay: Antihyperglycemic activity in sucrose-loaded Sprague-Dawley rat at 100 mg/kg
Type: functional
Property: Activity (%)
Just the number please, in %, no unit attached.

Record excerpt, results attached:
Consider O=C(c1ccc(OCCN2CCCC2)cc1)c1cccc2ccccc12 . Its measured Activity is 17.2

Consider CCN(CC)CCOc1ccc(C(=O)c2cccc3ccccc23)cc1 . Its measured Activity is 7.21

Consider COc1ccc(NCCCOc2ccc(C(=O)c3cccc4ccccc34)cc2)cc1 . Its measured Activity is 16.17

Continuing:
Consider COc1ccc(Cl)cc1C(=O)NCCc1ccc(S(=O)(=O)NC(=O)NC2CCCCC2)cc1 [GLYBURIDE] . Its measured Activity is 33.7

Consider O=C(c1ccc(OCCCN2CCCC2)cc1)c1cccc2ccccc12 . Its measured Activity is 28.8

* * *

System: Rattus norvegicus
Assay: Antihyperglycemic activity in sucrose-loaded Sprague-Dawley rat at 100 mg/kg
Assay type: functional
Property: Activity (%)
Just the number please, in %, no unit attached.

Record excerpt, results attached:
Consider CN(C)C(=N)NC(=N)N . Its measured Activity is 12.9

Consider COc1ccc(NCCOc2ccc(C(=O)c3cccc4ccccc34)cc2)cc1 . Its measured Activity is 9.71

Consider the record given below.
Consider Cc1ccc(S(=O)(=O)NC(=O)NN2CC3CCCC3C2)cc1 (stereo not drawn) [GLICLAZIDE] . Its measured Activity is 40.4
